Give pIC50 for every item shown.
- subject_of_test: UniProtKB P21397
- assay: Inhibition of human membrane bound MAO-A expressed in insect cell membranes assessed as reduction in conversion of kynuramine to 4-hydroxyquinoline by spectrophotometric assay
- cond: read-out: IC50
Numbers only, as −log10 of the molar value.

Known pIC50 results, listed for orientation:
structure: COc1ccc(NC(=S)Nc2ccc3[nH]ccc3c2)cc1
subject_of_test: UniProtKB P21397
pIC50: 4.44

structure: S=C(Nc1ccc2[nH]ccc2c1)Nc1cccc2cnccc12
subject_of_test: UniProtKB P21397
pIC50: 4.62

structure: CC(=O)Nc1ccc(NC(=S)Nc2ccc3[nH]ccc3c2)cc1
subject_of_test: UniProtKB P21397
pIC50: 4.15

structure: Oc1ccc(NC(=S)Nc2ccc3[nH]ccc3c2)cc1Cl
subject_of_test: UniProtKB P21397
pIC50: 4.24

structure: Oc1ccccc1NC(=S)Nc1ccc2[nH]ccc2c1
subject_of_test: UniProtKB P21397
pIC50: 4.85

structure: Oc1cc(Cl)ccc1NC(=S)Nc1ccc2[nH]ccc2c1
subject_of_test: UniProtKB P21397
pIC50: 5.20

Below is a list of compounds. For each, state its recorded pIC50.
1. S=C(Nc1ccccc1)Nc1ccc2[nH]ccc2c1
2. Cc1ccc(NC(=S)Nc2ccc3[nH]ccc3c2)c(O)c1
3. S=C(Nc1ccc(Br)cc1)Nc1ccc2[nH]ccc2c1

4.24
4.62
4.64

###

Read-out record for Peroxidase (Raphanus sativus, UniProt K7N5L9): pIC50
Numbers only, as −log10 of the molar value.

Known pIC50 results, listed for orientation:
structure: Oc1ccc(NC(=S)Nc2ccc3[nH]ccc3c2)cc1Cl
test_result: 6.00

structure: Oc1ccccc1NC(=S)Nc1ccc2[nH]ccc2c1
test_result: 6.10

Below is a list of molecules. For each, state its recorded pIC50.
1. Oc1ccc(NC(=S)Nc2ccc3[nH]ccc3c2)cc1
2. Oc1c(Cl)cc(NC(=S)Nc2ccc3[nH]ccc3c2)cc1Cl
3. Oc1ccc(CNC(=S)Nc2ccc3[nH]ccc3c2)cc1O

1: 6.00; 2: 5.97; 3: 6.10

###

- subject_of_test: Amine oxidase [flavin-containing] A (Homo sapiens, UniProt P21397)
- Sequence (P21397 whole entry): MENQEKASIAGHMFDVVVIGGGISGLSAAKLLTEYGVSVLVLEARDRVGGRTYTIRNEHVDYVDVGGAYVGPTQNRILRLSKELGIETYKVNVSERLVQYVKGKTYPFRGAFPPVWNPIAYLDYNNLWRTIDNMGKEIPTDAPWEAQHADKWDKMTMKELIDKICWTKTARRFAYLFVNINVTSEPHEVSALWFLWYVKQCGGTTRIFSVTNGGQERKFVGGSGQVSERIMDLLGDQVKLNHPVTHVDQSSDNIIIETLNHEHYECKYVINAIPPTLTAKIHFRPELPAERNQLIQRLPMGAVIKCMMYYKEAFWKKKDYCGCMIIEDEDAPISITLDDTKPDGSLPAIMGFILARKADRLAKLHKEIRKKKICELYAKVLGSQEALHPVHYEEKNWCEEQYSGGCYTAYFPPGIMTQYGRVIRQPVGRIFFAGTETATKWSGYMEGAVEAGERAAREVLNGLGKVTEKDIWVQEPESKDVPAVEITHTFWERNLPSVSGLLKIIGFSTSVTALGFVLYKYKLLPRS
- assay: Inhibition of human purified MAO-A expressed in insect cell membranes assessed as reduction in conversion of kynuramine to 4-hydroxyquinoline by spectrophotometric assay
- cond: read-out: IC50
measured_quantity: pIC50
Answers are plain numbers, as −log10 of the molar value.

Known pIC50 results, listed for orientation:
structure: CC(=O)c1ccc(NC(=S)Nc2ccc3[nH]ccc3c2)cc1
pIC50: 4.17
--
structure: S=C(Nc1ccc(Br)cc1)Nc1ccc2[nH]ccc2c1
pIC50: 5.23
--
structure: Oc1cc(Cl)ccc1NC(=S)Nc1ccc2[nH]ccc2c1
pIC50: 4.41
--
structure: CCOC(=O)c1ccc(NC(=S)Nc2ccc3[nH]ccc3c2)cc1
pIC50: 4.15

Below is a list of molecules. For each, state its recorded pIC50.
1. Oc1ccc(NC(=S)Nc2ccc3[nH]ccc3c2)cc1Cl
2. S=C(Nc1ccc2[nH]ccc2c1)Nc1cccc2cnccc12
3. COc1ccc(NC(=S)Nc2ccc3[nH]ccc3c2)cc1
4. Oc1ccccc1NC(=S)Nc1ccc2[nH]ccc2c1
5. CC(=O)Nc1ccc(NC(=S)Nc2ccc3[nH]ccc3c2)cc1

4.24
4.62
4.44
4.41
4.15
